src = patent US20230000842A1

# System: primary human mesenchymal stem cells (hMSCs)
# assay_summary: Chondrogenesis screening using primary human mesenchymal stem cells
# Type: cell-based
# condition_description: Homo sapiens, Mesenchymal stem cells, hMSC chondrogenesis; concentration required to induce 50% levels of chondrogenesis with TGF-β3 as positive control; read-out: Conc (nM) of 50% TGF-β3 activity
attribute_measured: EC50 (nM)
Answer with a number only, understood to be in nM.

Quick note, EC50 for O=C(Cc1ccccc1)Nc1cncc(-c2ccc3[nH]nc(-c4nc5c(-c6ccoc6)cncc5[nH]4)c3c2)c1 [compound 234] landed at 30

The recorded EC50 for CCNCc1cncc(-c2cnc3[nH]nc(-c4cc5c(-c6cccnc6)ccnc5[nH]4)c3c2)c1 [compound 366] is 10

# EC50 of CCNCc1cncc(-c2ccc3[nH]nc(-c4cc5ccccc5[nH]4)c3c2)c1 [compound 438] = 10

// EC50 value for CN(C)Cc1cncc(-c2cnc3[nH]nc(-c4nc5c(-c6ccsc6)cccc5[nH]4)c3c2)c1 [compound 251] : 300

// EC50 value for c1cncc(-c2cc3c(-c4cc5cnccc5[nH]4)n[nH]c3cn2)c1 [compound 412] : 30

Cc1cn(-c2nccc3[nH]c(-c4n[nH]c5ccc(-c6cncc(NC(=O)CC(C)C)c6)cc45)nc23)cn1 [compound 224] has a reported EC50 of 30

Please fill in: EC50 reported for O=C(Nc1cncc(-c2cnc3[nH]nc(-c4nc5c(-c6cccnc6)cncc5[nH]4)c3c2)c1)C1CCC1 [compound 191] = 300
